// data source = patent US11357246B2

TESTED_TARGET: hT1R2/hT1R3 (Homo sapiens, UniProt Q7RTX0+Q8TE23)
Construct: expressed in transfected cells; parental cells lack the receptor
Sequence (Q8TE23 20-839): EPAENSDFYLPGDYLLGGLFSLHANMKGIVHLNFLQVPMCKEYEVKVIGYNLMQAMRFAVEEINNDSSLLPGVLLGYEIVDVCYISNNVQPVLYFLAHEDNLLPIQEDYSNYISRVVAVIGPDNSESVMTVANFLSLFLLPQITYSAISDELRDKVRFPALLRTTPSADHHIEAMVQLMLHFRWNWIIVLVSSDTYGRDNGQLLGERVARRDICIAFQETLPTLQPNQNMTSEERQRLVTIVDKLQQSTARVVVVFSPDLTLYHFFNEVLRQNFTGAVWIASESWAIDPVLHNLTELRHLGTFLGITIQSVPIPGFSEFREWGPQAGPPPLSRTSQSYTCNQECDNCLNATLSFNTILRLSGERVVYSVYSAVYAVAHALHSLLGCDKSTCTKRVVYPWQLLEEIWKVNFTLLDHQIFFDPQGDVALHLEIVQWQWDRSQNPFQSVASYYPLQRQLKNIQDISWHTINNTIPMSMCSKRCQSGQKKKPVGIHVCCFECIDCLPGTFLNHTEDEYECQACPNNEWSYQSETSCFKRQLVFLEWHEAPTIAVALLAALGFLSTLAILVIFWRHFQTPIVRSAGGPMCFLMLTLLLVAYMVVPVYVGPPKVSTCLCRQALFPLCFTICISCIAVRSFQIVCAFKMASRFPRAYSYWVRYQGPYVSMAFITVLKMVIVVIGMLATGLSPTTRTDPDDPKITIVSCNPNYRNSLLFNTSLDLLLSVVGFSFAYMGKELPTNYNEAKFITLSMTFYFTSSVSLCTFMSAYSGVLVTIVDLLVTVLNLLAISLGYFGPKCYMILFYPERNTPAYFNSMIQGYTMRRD
Sequence (Q7RTX0 21-852): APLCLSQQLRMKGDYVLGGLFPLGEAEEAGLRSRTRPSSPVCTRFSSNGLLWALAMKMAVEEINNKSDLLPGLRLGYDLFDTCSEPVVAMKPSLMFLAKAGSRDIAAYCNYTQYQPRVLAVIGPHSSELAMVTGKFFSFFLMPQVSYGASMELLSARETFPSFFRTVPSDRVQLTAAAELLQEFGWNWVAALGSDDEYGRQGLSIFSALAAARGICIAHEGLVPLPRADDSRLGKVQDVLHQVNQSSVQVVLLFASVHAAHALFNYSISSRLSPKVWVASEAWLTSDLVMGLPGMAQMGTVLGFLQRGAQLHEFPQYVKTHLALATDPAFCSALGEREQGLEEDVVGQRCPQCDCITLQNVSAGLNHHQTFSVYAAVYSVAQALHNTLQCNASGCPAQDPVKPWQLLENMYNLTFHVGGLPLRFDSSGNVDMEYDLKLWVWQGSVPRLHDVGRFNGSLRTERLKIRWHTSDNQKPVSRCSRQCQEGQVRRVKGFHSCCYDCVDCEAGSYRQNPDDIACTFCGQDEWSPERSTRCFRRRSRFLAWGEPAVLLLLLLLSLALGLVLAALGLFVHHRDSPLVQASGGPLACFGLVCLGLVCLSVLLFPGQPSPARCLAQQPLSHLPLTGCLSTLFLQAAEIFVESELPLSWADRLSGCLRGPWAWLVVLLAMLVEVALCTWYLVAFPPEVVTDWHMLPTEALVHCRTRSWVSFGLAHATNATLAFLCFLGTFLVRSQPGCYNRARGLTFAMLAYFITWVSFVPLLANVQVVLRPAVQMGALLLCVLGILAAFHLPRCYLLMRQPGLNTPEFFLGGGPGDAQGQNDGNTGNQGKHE
EXPERIMENTAL_PROTOCOL: HTS-Sweet: FLIPR calcium fluorometric imaging assay in cells stably expressing the human sweet taste receptor and a promiscuous G protein
Format: cell-based
METRIC_NAME: EC50

Sample answers from the record:
So what does the record say about EC50 for CC(CCC(OC1OC(COC2OC(CO)C(O)C(O)C2O)C(O)C(O)C1OC1OC(CO)C(O)C(O)C1O)C(C)(C)O)C1CCC2(C)C3CC=C4C(CCC(OC5OC(COC6OC(CO)C(O)C(O)C6O)C(O)C(O)C5O)C4(C)C)C3(C)C(O)CC12C (stereo not shown) ?
17 to 30 µM

So what does the record say about EC50 for C[C@H](CC[C@@H](O[C@@H]1O[C@H](CO[C@H]2O[C@H](CO)[C@@H](O)[C@H](O)[C@H]2O)[C@@H](O)[C@H](O)[C@H]1O[C@@H]1O[C@H](CO)[C@@H](O)[C@H](O)[C@H]1O)C(C)(C)O)C1CC[C@@]2(C)C3CC=C4C(CC[C@H](O[C@@H]5O[C@H](CO[C@H]6O[C@H](CO)[C@@H](O)[C@H](O)[C@H]6O)[C@@H](O)[C@H](O)[C@H]5O)C4(C)C)[C@]3(C)[C@H](O)C[C@]12C (stereo partly shown) ?
< 17 µM

So what does the record say about EC50 for C[C@H](CC[C@@H](O[C@@H]1O[C@H](CO[C@H]2O[C@H](CO)[C@@H](O)[C@H](O)[C@H]2O)[C@@H](O)[C@H](O)[C@H]1O[C@@H]1O[C@H](CO)[C@@H](O)[C@H](O)[C@H]1O)C(C)(C)O)C1CC[C@@]2(C)C3CC=C4C(CC[C@H](O[C@@H]5O[C@H](CO)[C@@H](O)[C@H](O)[C@H]5O)C4(C)C)[C@]3(C)[C@H](O)C[C@]12C (stereo partly shown) ?
< 17 µM

Then this compound:
So what does the record say about EC50 for C[C@H](CC[C@@H](O[C@@H]1O[C@H](CO[C@H]2O[C@H](CO)[C@@H](O)[C@H](O)[C@H]2O)[C@@H](O)[C@H](O)[C@H]1O[C@@H]1O[C@H](CO)[C@@H](O)[C@H](O)[C@H]1O)C(C)(C)O)C1CC[C@@]2(C)C3CC=C4C(CC[C@H](O[C@@H]5O[C@H](CO[C@@H]6O[C@H](CO)[C@@H](O)[C@H](O)[C@H]6O)[C@@H](O)[C@H](O)[C@H]5O)C4(C)C)[C@]3(C)[C@H](O)C[C@]12C (stereo partly shown) ?
< 17 µM
